These measurements were taken from patent US20050143453A1.

# Tested on: obstruction-released kidney of male SD rats
# Experiment Description: Obstruction release model after complete obstruction of unilateral ureter for 14 days (UUO/Release, Test Example 3)
# Format: in vivo, rat
# Design: key: ∘: available; Δ: somewhat available; x: not available
# Test Conditions: Experimental Model of Rat: UUO/Release
Recorded Endpoint: Suppressive Effect to Glomerular Lesion

Use these answered entries as a reference point.
>>> observed_value("O=C1CCC(F)(C(=O)OCc2ccccc2)O1 (centres unmarked)")
"∘"
>>> observed_value("CC(OC(=O)[C@@]1(Oc2ccc(F)cc2)CCC(=O)O1)c1ccc2ccccc2c1 (mixture of isomers)")
"∘"
>>> observed_value("O=C1OC(Cl)(C(=O)OCc2ccccc2)c2ccccc21 (centres unmarked)")
"x"
>>> observed_value("CCOC(=O)C(=O)CCC(=O)O [(9-1), ethyl 2-ketoglutarate]")
"x"

// moving on: another record for Suppressive Effect to Glomerular Lesion
I'd like to know its Suppressive Effect to Glomerular Lesion. The molecule in question is CC(OC(=O)[C@]1(Oc2ccc(F)cc2)CCC(=O)O1)c1ccc2ccccc2c1 (mixture of isomers)
Δ

----------
# System: obstruction-released kidney of male SD rats
# Experiment Description: Obstruction release model after complete obstruction of unilateral ureter for 14 days (UUO/Release, Test Example 3)
# Type: in vivo, rat
# Design: key: ∘: available; Δ: somewhat available; x: not available
# Test Conditions: Experimental Model of Rat: UUO/Release
Recorded Endpoint: Suppressive Effect to Lesion of Tubulointerstitial Tissue

Use these answered entries as a reference point.
>>> observed_value("CC(OC(=O)[C@@]1(Oc2ccc(F)cc2)CCC(=O)O1)c1ccc2ccccc2c1 (mixture of isomers)")
"x"
>>> observed_value("CCOC(=O)C(=O)CCC(=O)O [(9-1), ethyl 2-ketoglutarate]")
"∘"
>>> observed_value("O=C1CCC(F)(C(=O)OCc2ccccc2)O1 (centres unmarked)")
"x"
>>> observed_value("CC(OC(=O)[C@]1(Oc2ccc(F)cc2)CCC(=O)O1)c1ccc2ccccc2c1 (mixture of isomers)")
"∘"

I'd like to know its Suppressive Effect to Lesion of Tubulointerstitial Tissue. The compound in question is O=C1OC(Cl)(C(=O)OCc2ccccc2)c2ccccc21 (centres unmarked)
∘

----------
# Test system: induction of effector macrophage by contact of human PBMC with mitomycin-treated human PBMC (allo-MLC)
# Experiment Description: SPFC production by allo-MLC stimulation (Test Example 2)
# Type: cell-based
# Test Conditions: summary of Table 1
Recorded Endpoint: functional group (selective suppression of SPFC production by allo-MLC or LPS stimulation)

Use these answered entries as a reference point.
>>> observed_value("O=C1OC(O)(C(=O)OCc2ccccc2)c2ccccc21 (centres unmarked) [(7-1)]")
"group I"
>>> observed_value("O=C1OC(Oc2ccc(F)cc2)(C(=O)O)c2ccccc21 (centres unmarked) [(7-6)]")
"group II"
>>> observed_value("CC(OC(=O)[C@]1(Oc2ccc(F)cc2)CCC(=O)O1)c1ccc2ccccc2c1 (mixture of isomers) [(4-2)]")
"group I"
>>> observed_value("O=C1CCC(Cl)(C(=O)OCc2ccccc2)O1 (centres unmarked) [(6-1)]")
"group II"

I'd like to know its functional group (selective suppression of SPFC production by allo-MLC or LPS stimulation). The compound in question is O=C1CC[C@@](Oc2ccc(F)cc2)(C(=O)O)O1 [Compound (1)]
group I

----------
# Tested on: induction of effector macrophage by contact of human PBMC with mitomycin-treated human PBMC (allo-MLC)
# Experiment Description: SPFC production by allo-MLC stimulation (Test Example 2)
# Assay type: cell-based
# Test Conditions: Table 5; read-out: Inhibiting Concentration for SPEC Production by allo-MLC Stimulation (μM: IC50)
Recorded Endpoint: IC50 (µM)
Numbers only here, please. The scale is µM.

I'd like to know its IC50. The compound in question is CCOC(=O)C(=O)CCC(=O)O [(9-1), ethyl 2-ketoglutarate]
0.01

----------
# Tested on: obstruction-released kidney of male SD rats
# Experiment Description: Obstruction release model after complete obstruction of unilateral ureter for 14 days (UUO/Release, Test Example 3)
# Assay type: in vivo, rat
# Test Conditions: 30 mg/kg subcutaneously every day; Table 2
Recorded Endpoint: Rate of Cases where Glomerular Lesion was Suppressed

Use these answered entries as a reference point.
>>> observed_value("CC(OC(=O)[C@@]1(Oc2ccc(F)cc2)CCC(=O)O1)c1ccc2ccccc2c1 (mixture of isomers)")
"100% (5/5)"
>>> observed_value("CCOC(=O)C(=O)CCC(=O)O [(9-1), ethyl 2-ketoglutarate]")
"0% (0/4)"
>>> observed_value("O=C1OC(Cl)(C(=O)OCc2ccccc2)c2ccccc21 (centres unmarked)")
"25% (1/4)"
>>> observed_value("CC(OC(=O)[C@]1(Oc2ccc(F)cc2)CCC(=O)O1)c1ccc2ccccc2c1 (mixture of isomers)")
"50% (2/4)"

// moving on: another record for Rate of Cases where Glomerular Lesion was Suppressed
I'd like to know its Rate of Cases where Glomerular Lesion was Suppressed. The compound in question is CCOC(=O)C1(Oc2ccc(F)cc2)CCC(=O)O1 (racemic) [Conventional Compound, reference compound]
75% (3/4)

----------
# Tested on: induction of effector macrophage by contact of human PBMC with mitomycin-treated human PBMC (allo-MLC)
# Experiment Description: SPFC production by allo-MLC stimulation (Test Example 2)
# Format: cell-based
# Test Conditions: Homo sapiens; Table 5; read-out: Inhibiting Concentration for SPEC Production by allo-MLC Stimulation (μM: IC50)
IC50 for assorted molecules

Use these answered entries as a reference point.
>>> observed_value("CCOC(=O)C1(Oc2ccc(F)cc2)CCC(=O)O1 (racemic) [Conventional Compound, reference compound]")
"0.1 µM"
>>> observed_value("O=C1CCC(Cl)(C(=O)OCc2ccccc2)O1 (centres unmarked)")
"> 1 µM"
>>> observed_value("CC(OC(=O)[C@]1(Oc2ccc(F)cc2)CCC(=O)O1)c1ccc2ccccc2c1 (mixture of isomers)")
"0.01 µM"

I'd like to know its IC50. The molecule in question is CC(OC(=O)[C@@]1(Oc2ccc(F)cc2)CCC(=O)O1)c1ccc2ccccc2c1 (mixture of isomers)
> 1 µM

I'd like to know its IC50. The molecule in question is O=C1OC(Cl)(C(=O)OCc2ccccc2)c2ccccc21 (centres unmarked)
0.01 µM

----------
IC50 for assorted molecules
# System: induction of effector macrophage by contact of human PBMC with lipopolysaccharide
# Experiment Description: SPFC production by LPS stimulation (Test Example 1)
# Assay type: cell-based
# Test Conditions: Homo sapiens; Table 5; read-out: Inhibiting Concentration for SPEC Production by LPS Stimulation (μM: IC50)
Numbers only here, please. The scale is µM.

Use these answered entries as a reference point.
>>> observed_value("O=C1CCC(Cl)(C(=O)OCc2ccccc2)O1 (stereo not drawn)")
0.001
>>> observed_value("CCOC(=O)C1(Oc2ccc(F)cc2)CCC(=O)O1 (racemic) [Conventional Compound, reference compound]")
0.1
>>> observed_value("O=C1OC(Cl)(C(=O)OCc2ccccc2)c2ccccc21 (stereo not drawn)")
0.01
>>> observed_value("O=C1CCC(F)(C(=O)OCc2ccccc2)O1 (stereo not drawn)")
0.001

// moving on: another record for IC50
I'd like to know its IC50. The molecule in question is CC(OC(=O)[C@@]1(Oc2ccc(F)cc2)CCC(=O)O1)c1ccc2ccccc2c1 (mixture of isomers)
1
